# target under test: CYP-3A4 (Homo sapiens, UniProt P08684)
# Construct: tissue Bioduro, LLC (contract lab that ran the assay); host or cells: human liver microsomes
# Sequence (P08684 whole entry): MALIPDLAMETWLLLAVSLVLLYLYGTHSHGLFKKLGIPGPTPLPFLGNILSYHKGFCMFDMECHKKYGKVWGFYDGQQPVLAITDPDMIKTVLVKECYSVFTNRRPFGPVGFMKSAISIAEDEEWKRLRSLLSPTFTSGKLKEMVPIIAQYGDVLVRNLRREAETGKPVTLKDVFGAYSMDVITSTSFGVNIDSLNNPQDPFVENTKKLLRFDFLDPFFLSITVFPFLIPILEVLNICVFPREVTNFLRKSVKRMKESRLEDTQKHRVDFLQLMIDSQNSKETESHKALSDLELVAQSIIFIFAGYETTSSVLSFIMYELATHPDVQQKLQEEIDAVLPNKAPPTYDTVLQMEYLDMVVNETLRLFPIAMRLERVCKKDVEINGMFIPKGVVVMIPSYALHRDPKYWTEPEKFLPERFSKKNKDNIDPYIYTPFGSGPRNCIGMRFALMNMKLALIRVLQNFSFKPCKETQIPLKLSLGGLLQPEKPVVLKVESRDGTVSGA
# assay notes: Time-dependent CYP-3A4 inhibition (midazolam turnover, human liver microsomes)
# Assay type: in vitro ADME
# condition parameters: 60 min pre-incubation; 50% inhibition of midazolam turnover; read-out: IC50 at Pre-incubation time 60 min
property label: IC50

Would you mind telling me what IC50 value was observed for O=S(=O)(NC1CCCC(N2c3ccccc3CCc3ccccc32)C1O)c1ccc(OC(F)(F)F)cc1 (centres unmarked) [DBK-1154] ? 18 µM

Input O=S(=O)(N[C@H]1COC[C@@H](n2c3ccc(Cl)cc3c3cc(Cl)ccc32)[C@@H]1O)c1ccc(OC(F)(F)F)cc1 [ATUX-792] > 50 µM

* * *

# target under test: CYP-3A4 (Homo sapiens, UniProt P08684)
# Construct: tissue Bioduro, LLC (contract lab that ran the assay); host or cells: human liver microsomes
# assay notes: Time-dependent CYP-3A4 inhibition (midazolam turnover, human liver microsomes)
# Format: in vitro ADME
# condition parameters: 5 min pre-incubation; 50% inhibition of midazolam turnover; read-out: IC50 at Pre-incubation time 5 min
property label: IC50 (µM)
Quick reminder: number only, in µM, skip the unit.

Would you mind telling me what IC50 value was observed for O=S(=O)(NC1CCCC(N2c3ccccc3CCc3ccccc32)C1O)c1ccc(OC(F)(F)F)cc1 (centres unmarked) ? 42

* * *

# Test system: SK-N-AS cells
# assay notes: CellTiter 96 proliferation, SK-N-AS
# Format: cell-based
# condition parameters: Homo sapiens, 24 h
# Description: CellTiter 96® Aqueous One Solution Cell Proliferation assay (Promega, Madison, WI, USA) was used to examine proliferation, and alamarBlue® assay (Thermo Fisher Scientific, Inc.) was used to evaluate viability. […] A microplate reader (Epoch Microplate Spectrophotometer, BioTek Instruments, Winooski, VT) measured absorbance at 490 nm for CellTiter 96® and at 570 nm for alamarBlue®, using 600 nm as a reference. […]
property label: pIC50
Please express pIC50 as -log10 of the molar concentration.

Would you mind telling me what pIC50 value was observed for O=S(=O)(NC1CCCC(N2c3ccccc3CCc3ccccc32)C1O)c1ccc(OC(F)(F)F)cc1 (centres unmarked) ? 4.65

Note: attention shifts to another entry.
Would you mind telling me what pIC50 value was observed for `O=S(=O)(N[C@H]1COC[C@@H](n2c3ccc(Cl)cc3c3cc(Cl)ccc32)[C@@H]1O)c1ccc(OC(F)(F)F)cc1` ? 4.62

* * *

# assay notes: Microsome (oxidative metabolism) stability, mouse
# Assay type: in vitro ADME
# condition parameters: liver microsomes 0.5 mg/mL, NADPH, read-out: T1/2 Mouse
# Experimental: Microsome stability assays were performed by Bioduro, LLC. Briefly, 2.5 µL (100 µM in DMSO) of test compounds are added to 197.5 µL of human, rat, or mouse microsome preparation (0.633 mg/mL in phosphate buffer) and mixed gently at 37 °C. […] Reaction aliquots are quenched by adding to 1:1 methanol–acetonitrile containing analytical standards and analyzed by liquid chromatography with tandem mass spectrometry (LC-MS/MS).
property label: half-life at 1 µM (min)
Quick reminder: number only, in min, skip the unit.

Would you mind telling me what half-life at 1 µM value was observed for O=S(=O)(NC1CCCC(N2c3ccccc3CCc3ccccc32)C1O)c1ccc(OC(F)(F)F)cc1 (centres unmarked) ? 6
